- experimental-system: human OATP1B1 (Homo sapiens (Human), UniProt Q9Y6L6)
- Sequence (Q9Y6L6 whole entry): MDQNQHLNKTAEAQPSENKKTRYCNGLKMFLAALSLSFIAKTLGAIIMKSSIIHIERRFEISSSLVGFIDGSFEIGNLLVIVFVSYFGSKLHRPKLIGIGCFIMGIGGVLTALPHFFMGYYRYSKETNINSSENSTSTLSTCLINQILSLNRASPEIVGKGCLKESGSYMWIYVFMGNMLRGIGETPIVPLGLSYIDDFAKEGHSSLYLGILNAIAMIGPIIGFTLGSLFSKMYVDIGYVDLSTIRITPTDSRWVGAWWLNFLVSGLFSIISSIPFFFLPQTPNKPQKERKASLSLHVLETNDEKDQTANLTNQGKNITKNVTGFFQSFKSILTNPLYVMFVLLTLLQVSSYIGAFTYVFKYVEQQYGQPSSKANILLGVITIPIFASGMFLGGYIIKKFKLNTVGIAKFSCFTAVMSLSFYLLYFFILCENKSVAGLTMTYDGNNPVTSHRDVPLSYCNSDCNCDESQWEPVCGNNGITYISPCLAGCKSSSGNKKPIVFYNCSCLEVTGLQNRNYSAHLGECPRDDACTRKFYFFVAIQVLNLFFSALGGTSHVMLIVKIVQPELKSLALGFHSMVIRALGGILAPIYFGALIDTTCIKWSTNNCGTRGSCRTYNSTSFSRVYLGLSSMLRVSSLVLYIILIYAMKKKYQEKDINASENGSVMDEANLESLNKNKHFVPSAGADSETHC
- experiment-notes: In Vitro Inhibition Assessment with Human OATP1B1 Transporter
- Format: in vitro ADME
- stated-conditions: HEK293-OATP1B1 cells, probe substrate pravastatin
property-name: IC50 (µM)
Give the number; µM is assumed, so skip it.

Field: example entries. Status: answers known.
{"compound": "C[C@H]1[C@H](O)CN1c1nc(-c2ccc3c(c2)[C@@H](NS(C)(=O)=O)CO3)c2c(n1)C(F)(F)CC2", "IC50 [µM]": 7.35}
{"compound": "C[C@H]1[C@H](F)CN1c1nc(-c2ccc([C@@H](N)CS(C)(=O)=O)cc2)c2c(n1)C(F)(F)CC2 (single isomer, unassigned)", "IC50 [µM]": 19.7}
{"compound": "C[C@H]1CCN1c1nc(N2C[C@@H]3[C@@H](CC(=O)O)[C@@H]3C2)cc(C(F)(F)F)n1 [Reference Compound 1, reference compound]", "IC50 [µM]": 1.19}
{"compound": "C[C@H]1[C@H](O)CN1c1nc(-c2ccc([C@]3(N)CCOC3)cc2)c2c(n1)C(F)(F)CC2 (single isomer, unassigned)", "IC50 [µM]": 27.1}
{"compound": "C[C@H]1CCN1c1nc2c(c(-c3cccc(C(N)=O)c3)n1)CCC2", "IC50 [µM]": 1.32}

Q: In one line, give reported IC50 of the entry `C[C@H]1CCN1c1nc2c(c(-c3ccc4c(N)nccc4c3)n1)CCC2` .
A: 1.69

Q: In one line, give reported IC50 of the entry `C[C@H]1[C@H](O)CN1c1nc(-c2ccc(C3(N)CS(=O)(=O)C3)cc2)c2c(n1)C(F)(F)CC2` .
A: 36

Attribution: patent US12410160B2
